The reported measurements were obtained from patent US11306078B2.

SYSTEM: human chemokine receptor CXCR7 (Homo sapiens (Human))
Sequence (P25106 whole entry): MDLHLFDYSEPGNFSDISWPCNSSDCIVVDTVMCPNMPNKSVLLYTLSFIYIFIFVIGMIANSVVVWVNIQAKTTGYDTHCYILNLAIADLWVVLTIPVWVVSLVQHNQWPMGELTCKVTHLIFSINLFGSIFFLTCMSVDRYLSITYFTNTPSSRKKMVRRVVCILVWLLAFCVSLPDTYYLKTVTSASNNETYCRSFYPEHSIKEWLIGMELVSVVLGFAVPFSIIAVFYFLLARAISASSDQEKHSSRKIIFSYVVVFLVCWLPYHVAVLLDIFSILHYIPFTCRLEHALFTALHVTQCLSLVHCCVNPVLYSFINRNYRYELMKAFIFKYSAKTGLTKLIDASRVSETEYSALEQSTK
EXPERIMENT_DESCRIPTION: Tango CXCR7-bla U2OS beta-arrestin recruitment assay (beta-lactamase reporter, FRET), antagonism of CXCL12/SDF1-α;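 further: compounds preincubated 15 min before CXCL12 addition, then 22 h at 37 °C, FRET emission ratio read with CCF4-AM substrate after 2 h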
Assay type: cell-based
CONDITION_INFO: antagonistic effect on CXCR7; Tango CXCR7-bla U2OS cells, CXCL12/SDF1-α at its EC80
REPORTED_PROPERTY: IC50 (nM)

| COMPOUND | REPORTED_PROPERTY | MEASURED_VALUE |
| --- | --- | --- |
| Cn1cc(C(C)(C)NC(=O)[C@H]2CN(CC3CC3)CC[C@@H]2NC(=O)c2cc(-c3ccc(F)cc3F)on2)cn1 | IC50 | 158 |
| O=C(N[C@H]1CCN(CC2CC2)C[C@@H]1C(=O)N1CCCC1c1ncccn1)c1cc(-c2ccc(F)cc2F)on1 (stereo partly shown) [Example 4.078b] | IC50 | 15 |
| CN(C)C(=O)[C@@H]1CN(C2CCCC2)CC[C@H]1NC(=O)c1cc(-c2c(F)cc(F)cc2F)on1 (racemic) | IC50 | 131 |
| CN(C)C(=O)[C@@H]1CN(C2CCCCC2)CC[C@H]1NC(=O)c1ncc(-c2ccc(F)cc2F)o1 (racemic) | IC50 | 198 |
| O=C(N[C@@H]1CCN(C2CCCCC2)C[C@H]1C(=O)NCc1ncccn1)c1cc(-c2ccc(F)cc2F)on1 (racemic) | IC50 | 154 |
| Cc1cccc([C@H](C)NC(=O)[C@@H]2CN(C3CCCCC3)CC[C@H]2NC(=O)c2cc(-c3ccc(F)cc3F)on2)n1 (single isomer, unassigned) [Example 1.188c] | IC50 | 179 |
| CC(C)(CC(F)(F)F)NC(=O)[C@@H]1CN(C2CCCCC2)CC[C@H]1NC(=O)c1cc(-c2ccc(F)cc2F)on1 | IC50 | 564 |
| CN(C)C(=O)[C@@H]1CN(CCC(C)(C)C)CC[C@H]1NC(=O)c1cc(-c2ccc(F)cc2F)on1 | IC50 | 155 |
| CN(CCc1ccccc1)C(=O)[C@@H]1CN([C@@H]2CCCC[C@H]2O)CC[C@H]1NC(=O)c1cc(-c2ccc(F)cc2F)on1 | IC50 | 15 |
| CC(NC(=O)[C@@H]1CN(C2CCCC2)CC[C@H]1NC(=O)c1cc(-c2ccc(F)cc2F)on1)c1ccccn1 (stereo partly shown) | IC50 | 10 |
| CC(C)(C)N1CC[C@@H](NC(=O)c2cc(-c3ccc(F)cc3F)on2)[C@H](C(=O)NC2(c3ncccn3)CC2)C1 [Example 4.101] | IC50 | 71 |
| O=C(N[C@@H]1CCN(CC2CC2)C[C@H]1C(=O)NC1(c2ncccn2)CC1)c1cc(-c2c(F)cccc2F)on1 (racemic) | IC50 | 186 |
| C[C@@H](NC(=O)[C@@H]1CN(C2CCCC2)CC[C@H]1NC(=O)c1cc(-c2c(F)cc(F)cc2F)on1)c1cnccn1 | IC50 | 140 |
